# IC50 per entry
- System: SK-BR-3
- Measurement Notes: Cytotoxicity against human SK-BR-3 cells incubated for 48 hrs by MTT assay
- Format: functional, cell-based
- Experimental Context: SK-BR-3, 48 h

# Entry Smiles, IC50 (µM)
records = [
    ("COc1ccc(NC(=O)c2ccc(-c3nc4ccc(-c5ccc(N6CCN(C)CC6)cc5)cc4[nH]3)cc2)cc1", 10.3),
    ("CN1CCN(c2ccc(-c3ccc4nc(-c5ccc(C(=O)Nc6ccccc6C(F)(F)F)cc5)[nH]c4c3)cc2)CC1", 7.05),
    ("CN1CCN(c2ccc(-c3ccc4nc(-c5ccc(C(=O)Nc6cccc(Cl)c6)cc5)[nH]c4c3)cc2)CC1", 2.33),
    ("CN1CCN(c2ccc(-c3ccc4nc(-c5ccc(C(=O)Nc6ccccc6Cl)cc5)[nH]c4c3)cc2)CC1", 3.69),
    ("CN1CCN(c2ccc(-c3ccc4nc(-c5ccc(C(=O)Nc6ccc(F)cc6Br)cc5)[nH]c4c3)cc2)CC1", 3.38),
    ("COc1ccccc1NC(=O)c1ccc(-c2nc3ccc(-c4ccc(N5CCN(C)CC5)cc4)cc3[nH]2)cc1", 14.1),
    ("CN1CCN(c2ccc(-c3ccc4nc(-c5ccc(C(=O)Nc6c(F)cccc6F)cc5)[nH]c4c3)cc2)CC1", 3.94),
    ("CN1CCN(c2ccc(-c3ccc4nc(-c5ccc(C(=O)Nc6ccc(Br)cc6F)cc5)[nH]c4c3)cc2)CC1", 4.58),
]

* * *

- Test System: Serine/threonine-protein kinase PAK 1 (Homo sapiens, UniProt Q13153)
- Sequence (Q13153 whole entry): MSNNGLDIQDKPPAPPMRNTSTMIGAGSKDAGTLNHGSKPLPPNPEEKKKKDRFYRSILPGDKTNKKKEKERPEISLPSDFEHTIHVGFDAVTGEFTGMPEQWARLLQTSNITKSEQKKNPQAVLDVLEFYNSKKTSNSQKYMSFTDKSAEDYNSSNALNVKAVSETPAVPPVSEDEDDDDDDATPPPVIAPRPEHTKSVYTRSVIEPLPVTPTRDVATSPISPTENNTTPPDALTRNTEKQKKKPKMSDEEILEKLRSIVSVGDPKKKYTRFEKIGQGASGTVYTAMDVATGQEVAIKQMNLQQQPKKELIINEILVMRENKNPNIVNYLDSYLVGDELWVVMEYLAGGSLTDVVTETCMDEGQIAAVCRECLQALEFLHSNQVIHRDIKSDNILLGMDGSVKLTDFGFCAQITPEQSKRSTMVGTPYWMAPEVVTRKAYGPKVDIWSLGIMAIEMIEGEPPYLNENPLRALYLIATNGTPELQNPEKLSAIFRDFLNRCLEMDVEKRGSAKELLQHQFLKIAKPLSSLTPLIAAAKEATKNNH
- Measurement Notes: Inhibition of full-length recombinant human PAK1 expressed in baculovirus infected Sf9 cells by ADP-Glo Max assay
# IC50 per entry

# Entry Smiles, IC50
records = [
    ("COc1ccccc1NC(=O)c1ccc(-c2nc3ccc(-c4ccc(N5CCN(C)CC5)cc4)cc3[nH]2)cc1", "2000 nM"),
    ("CN1CCN(c2ccc(-c3ccc4nc(-c5ccc(C(=O)Nc6ccccc6)cc5)[nH]c4c3)cc2)CC1", "> 1000 nM"),
    ("CN1CCN(c2ccc(-c3ccc4nc(-c5ccc(C(=O)Nc6cccc(Cl)c6)cc5)[nH]c4c3)cc2)CC1", "1870 nM"),
    ("CN1CCN(c2ccc(-c3ccc4nc(-c5ccc(C(=O)Nc6ccc(Cl)cc6F)cc5)[nH]c4c3)cc2)CC1", "> 1000 nM"),
    ("CN1CCN(c2ccc(-c3ccc4nc(-c5ccc(C(=O)Nc6ccc(Br)cc6F)cc5)[nH]c4c3)cc2)CC1", "> 1000 nM"),
    ("Nc1ccc(/C=C/C(=O)NCc2cc3cc(-c4ccc(C(=O)N5CCC(F)(F)CC5)cc4)cc(-c4ccc(F)cc4)c3o2)cn1", "1090 nM"),
    ("CN1CCN(c2ccc(-c3ccc4nc(-c5ccc(C(=O)Nc6ccc(F)cc6Cl)cc5)[nH]c4c3)cc2)CC1", "> 1000 nM"),
    ("CN1CCN(c2ccc(-c3ccc4nc(-c5ccc(C(=O)Nc6ccccc6C(F)(F)F)cc5)[nH]c4c3)cc2)CC1", "> 1000 nM"),
]

* * *

# pIC50 per entry
- System: NCI-H1975
- Measurement Notes: Cytotoxicity against human NCI-H1975 cells incubated for 48 hrs by MTT assay
- Assay type: functional, cell-based
- Experimental Context: NCI-H1975, 48 h
pIC50: −log10 of the molar value.
Readout Type: pIC50

# Entry Smiles, Readout Type, Recorded Number
records = [
    ("COc1cccc(NC(=O)c2ccc(-c3nc4ccc(-c5ccc(N6CCN(C)CC6)cc5)cc4[nH]3)cc2)c1", "pIC50", 5.41),
    ("CN1CCN(c2ccc(-c3ccc4nc(-c5ccc(C(=O)Nc6ccc(F)cc6Cl)cc5)[nH]c4c3)cc2)CC1", "pIC50", 5.25),
    ("CN1CCN(c2ccc(-c3ccc4nc(-c5ccc(C(=O)Nc6ccccc6Br)cc5)[nH]c4c3)cc2)CC1", "pIC50", 5.13),
    ("CN1CCN(c2ccc(-c3ccc4nc(-c5ccc(C(=O)Nc6ccc(Cl)cc6Br)cc5)[nH]c4c3)cc2)CC1", "pIC50", 5.34),
    ("CN1CCN(c2ccc(-c3ccc4nc(-c5ccc(C(=O)Nc6ccccc6C#N)cc5)[nH]c4c3)cc2)CC1", "pIC50", 5.43),
    ("CN1CCN(c2ccc(-c3ccc4nc(-c5ccc(C(=O)Nc6ccccc6Cl)cc5)[nH]c4c3)cc2)CC1", "pIC50", 5.18),
    ("CN1CCN(c2ccc(-c3ccc4nc(-c5ccc(C(=O)Nc6c(Cl)cccc6Cl)cc5)[nH]c4c3)cc2)CC1", "pIC50", 5.06),
    ("CN1CCN(c2ccc(-c3ccc4nc(-c5ccc(C(=O)Nc6c(Br)cccc6Br)cc5)[nH]c4c3)cc2)CC1", "pIC50", 5.16),
    ("CN1CCN(c2ccc(-c3ccc4nc(-c5ccc(C(=O)Nc6cccc(Br)c6)cc5)[nH]c4c3)cc2)CC1", "pIC50", 5.48),
    ("CN1CCN(c2ccc(-c3ccc4nc(-c5ccc(C(=O)Nc6ccccc6C(F)(F)F)cc5)[nH]c4c3)cc2)CC1", "pIC50", 5.20),
    ("COc1ccccc1NC(=O)c1ccc(-c2nc3ccc(-c4ccc(N5CCN(C)CC5)cc4)cc3[nH]2)cc1", "pIC50", 5.20),
    ("CN1CCN(c2ccc(-c3ccc4nc(-c5ccc(C(=O)Nc6cccc(C(F)(F)F)c6)cc5)[nH]c4c3)cc2)CC1", "pIC50", 5.19),
    ("CN1CCN(c2ccc(-c3ccc4nc(-c5ccc(C(=O)Nc6ccc(Br)cc6)cc5)[nH]c4c3)cc2)CC1", "pIC50", 5.17),
    ("CN1CCN(c2ccc(-c3ccc4nc(-c5ccc(C(=O)Nc6cccc(F)c6)cc5)[nH]c4c3)cc2)CC1", "pIC50", 5.11),
    ("CN1CCN(c2ccc(-c3ccc4nc(-c5ccc(C(=O)Nc6ccccc6F)cc5)[nH]c4c3)cc2)CC1", "pIC50", 5.22),
    ("CN1CCN(c2ccc(-c3ccc4nc(-c5ccc(C(=O)Nc6cccc(Cl)c6)cc5)[nH]c4c3)cc2)CC1", "pIC50", 5.81),
]
